Would you kindly list EC50 for each of these binders?
target: T1, cynomolgus CD3 protein (cynomolgus); test: ELISA, plate-coated CD3
T1 construct: ELISA coating protein
T1 sequence (Q95LI5 22-117, chain 1 of 2): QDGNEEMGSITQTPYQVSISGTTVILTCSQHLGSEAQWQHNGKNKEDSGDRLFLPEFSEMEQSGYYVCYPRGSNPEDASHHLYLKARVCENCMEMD
T1 sequence (Q95LI8 22-105, chain 2 of 2, further chain): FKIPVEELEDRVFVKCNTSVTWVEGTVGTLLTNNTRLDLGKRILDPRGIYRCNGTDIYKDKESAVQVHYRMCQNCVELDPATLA
Answers are plain numbers, in ng/mL.

Here are 3 binders together with their reported answers.
[Q] Given the binder 192A7B9 chimeric mAb (antibody, V domains shown, Chimeric mAb) VH: QVQLKESGPGLVQPSQTLSLNCTVSGFSLTSYNVHWVRQPPGKGLEWMGRMRYNGDTSYNSALKSRLSISRDTSKNQVFLKMNSLQTDDTGTYYCTRGPRGGYYSALFDYWGQGVMVTVSS VL: DIQMTQSPSFLSASVGDRVTINCKASQNINRYLNWYQQKLGDAPKVLISIANSLQTGIPSRFSGSGSGTDFTLTISSLQPEDVATYFCLQHNSWYTFGAGTKLELK , write its reported EC50.
[A] 2.16

[Q] Give me measured EC50, please, for this binder: 155A9B1 chimeric mAb (antibody, V domains shown, Chimeric mAb) VH: QVQLKESGPGLVQPSQTLSLTCTVSGFSLTSYNVHWVRQPPGKGLEWMGRVRYNGDTSYNSALKSRLSISRDTSKNQAFLKMNSLQIDDTGTYYCTRGPYGGSSEPLFDYWGQGVMVTVSS VL: DIKMTQSPSFLSASVGDRVTINCKASQNINKYLNWFQQKLGEAPRLLIYTTNNLQTGIPSRFSGSGSGTDFTLTISSLQPEDVATYFCLQHNSGYTFGAGTKLELK
[A] 2.33

[Q] Retrieve EC50 measured for 153A6B1 chimeric mAb (antibody, V domains shown, Chimeric mAb of the hybridoma clone; also called 153A6B1C8) VH: QVQLKESGPGLVQPSQTLSLTCTVSGFSLTSYNIHWVRQPPGKGLEWMGRIRYNGDTSYNSALKSRLSISRDTSKNQVFLKMSSLQTDDTGTYYCTRGPYGGSREPLFDYWGQGVMVTVSS VL: DIKMTQSPSFLSAAVGDRVTINCKTSQNINKYLNWFQQKLGAAPKLLIYTTNNLQTGIPSRFSGSGSGTDFTLTISSLQPEDVATYFCLQHGSGYTFGAGTKLELK and print it.
[A] 2.88

More entries:
[Q] Note down EC50 recorded for SP34 monoclonal antibody (antibody, human IgG1, lambda, N297A, V domains shown, also called SP34 (Biointron, B6762)) VH: EVQLVESGGGLVQPKGSLKLSCAASGFTFNTYAMNWVRQAPGKGLEWVARIRSKYNNYATYYADSVKDRFTISRDDSQSILYLQMNNLKTEDTAMYYCVRHGNFGNSYVSWFAYWGQGTLVTVSA VL: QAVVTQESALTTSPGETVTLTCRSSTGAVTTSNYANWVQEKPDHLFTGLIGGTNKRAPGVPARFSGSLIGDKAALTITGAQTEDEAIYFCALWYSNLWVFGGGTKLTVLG
[A] 6.18

FYI, the data here is from patent US20240417469A1.
